- experiment: Cytotoxicity against human HuH7 cells assessed as release of lactate dehydrogenase
- Assay type: cell-based, Huh-7
- test settings: Homo sapiens, Huh-7
In this section we review reported IC50 values for a set of compounds.

compound: C/C=C/C[C@@H](C)[C@@H](O)[C@H]1C(=O)N[C@@H](CC)C(=O)N(C)CC(=O)N(C)[C@@H](CC(C)C)C(=O)N[C@@H](C(C)C)C(=O)N(C)[C@@H](CC(C)C)C(=O)N[C@@H](C)C(=O)N[C@H](CCC#N)C(=O)N(C)[C@@H](CC(C)C)C(=O)N(C)[C@@H](CC(C)C)C(=O)N(C)[C@@H](C(C)C)C(=O)N1C
reported relation: =
IC50 (nM): 2370

compound: C/C=C/C[C@@H](C)[C@@H](O)[C@H]1C(=O)N[C@@H](CC)C(=O)N(C)CC(=O)N(C)[C@@H](CC(C)C)C(=O)N[C@@H](C(C)C)C(=O)N(C)[C@@H](CC(C)C)C(=O)N[C@@H](C)C(=O)N[C@H](CN)C(=O)N(C)[C@@H](CC(C)C)C(=O)N(C)[C@@H](CC(C)C)C(=O)N(C)[C@@H](C(C)C)C(=O)N1C
reported relation: =
IC50 (nM): 4610

compound: C/C=C/C[C@@H](C)[C@@H](O)[C@H]1C(=O)N[C@@H](CC)C(=O)N(C)CC(=O)N(C)[C@@H](CC(C)C)C(=O)N[C@@H](C(C)C)C(=O)N(C)[C@@H](CC(C)C)C(=O)N[C@@H](C)C(=O)N[C@H](CCCNC(=O)C(C)(C)C)C(=O)N(C)[C@@H](CC(C)C)C(=O)N(C)[C@@H](CC(C)C)C(=O)N(C)[C@@H](C(C)C)C(=O)N1C
reported relation: =
IC50 (nM): 2070

compound: C/C=C/C[C@@H](C)[C@@H](O)[C@H]1C(=O)N[C@@H](CC)C(=O)N(C)[C@H](SCCN(C)C)C(=O)N(C)[C@@H](CC(C)(C)O)C(=O)N[C@@H](C(C)C)C(=O)N(C)[C@@H](CC(C)C)C(=O)N[C@@H](C)C(=O)N[C@H](C)C(=O)N(C)[C@@H](CC(C)C)C(=O)N(C)[C@@H](CC(C)C)C(=O)N(C)[C@@H](C(C)C)C(=O)N1C [SCY 635]
reported relation: >
IC50 (nM): 10000

compound: C/C=C/C[C@@H](C)[C@@H](O)[C@H]1C(=O)N[C@@H](CC)C(=O)N(C)CC(=O)N(C)[C@@H](CC(C)C)C(=O)N[C@@H](C(C)C)C(=O)N(C)[C@@H](CC(C)C)C(=O)N[C@@H](C)C(=O)N[C@H](CCCCN(C)C)C(=O)N(C)[C@@H](CC(C)C)C(=O)N(C)[C@@H](CC(C)C)C(=O)N(C)[C@@H](C(C)C)C(=O)N1C
reported relation: =
IC50 (nM): 2810

compound: C/C=C/C[C@@H](C)[C@@H](O)[C@H]1C(=O)N[C@@H](CC)C(=O)N(C)CC(=O)N(C)[C@@H](CC(C)C)C(=O)N[C@@H](C(C)C)C(=O)N(C)[C@@H](CC(C)C)C(=O)N[C@@H](C)C(=O)N[C@H](CN(CC)CC)C(=O)N(C)[C@@H](CC(C)C)C(=O)N(C)[C@@H](CC(C)C)C(=O)N(C)[C@@H](C(C)C)C(=O)N1C
reported relation: =
IC50 (nM): 2680
